Read-out: alkyl and aryl transferase (GSTA2), GSTA2 (gene 2939)
Experiment: CLD_GSTA2_6hr: CellzDirect (CLD) Gene Expression Assay for alkyl and aryl transferase (GSTA2) at 6 hours (AID 2283666)
Description: CLD_6hr is a cell-based, multiplexed-readout assay that uses hepatocyte, a human liver primary cell, with measurements taken at 6 hours after chemical dosing in a 96-well plate.CLD_GSTA2_6hr is one of 16 assay component(s) measured or calculated from the CLD_6hr assay. […] Furthermore, this assay endpoint can be referred to as a primary readout. […]
Inconclusive results are not listed. Calls of active or inactive are those of the source. Rule for the calls: active = hit-call score of the fitted dose curve at least 0.9, where 1 is the maximum; inconclusive = response in the unintended direction; inactive = score below 0.9.
measurement_name: outcome

[[record]]
compound = "CNc1cnn(-c2cccc(C(F)(F)F)c2)c(=O)c1Cl"
recorded_result = "inactive"

[[record]]
compound = "C#CCC1=C(C)C(OC(=O)C2C(C=C(C)C)C2(C)C)CC1=O (stereo not drawn)"
recorded_result = "inactive"

[[record]]
compound = "CCOP(=S)(OCC)Oc1ccc([N+](=O)[O-])cc1"
recorded_result = "inactive"


* * *

read-out: Fatty Acid-Binding Protein 1 (FABP1), FABP1 (gene 2168); experiment: LTEA_HepaRG_FABP1: Life Technologies and Expression Analysis (LTEA) Assay for Fatty Acid-Binding Protein 1 (FABP1) using HepaRG (AID 2283494); conditions: mRNA level, 48 h; actives raise or lower the signal
Active and inactive are the calls of the source. Rule for the calls: active = hit-call score of the fitted dose curve at least 0.9, where 1 is the maximum; inactive = score below 0.9.
Classes used: active, inactive

[[record]]
compound = "CCCCOC(=O)[C@@H](C)Oc1ccc(Oc2ccc(C#N)cc2F)cc1"
assigned_category = "inactive"

[[record]]
compound = "CCOP(=S)(Oc1cnc(C(C)(C)C)nc1)OC(C)C (stereo not given)"
assigned_category = "active"

[[record]]
compound = "Cc1cc(C2CC2)nc(Nc2ccccc2)n1"
assigned_category = "inactive"

[[record]]
compound = "COc1cccc(C(=O)NN(C(=O)c2cc(C)cc(C)c2)C(C)(C)C)c1C"
assigned_category = "inactive"

[[record]]
compound = "CCCCN(CC)c1c([N+](=O)[O-])cc(C(F)(F)F)cc1[N+](=O)[O-]"
assigned_category = "inactive"


* * *

read-out: Intercellular Adhesion Molecule 1 (ICAM1), ICAM1 (gene 3383); assay: BSK_3C_ICAM1: BioMAP Diversity Plus: 3C Assay for Intercellular Adhesion Molecule 1 (ICAM1) Biomarker Activity (AID 2283003); settings: primary human endothelial cells (HUVEC); actives raise or lower the signal
Calls of active or inactive are those of the source. The calls were made as follows: active = hit-call score of the fitted dose curve at least 0.9, where 1 is the maximum; inactive = score below 0.9.
Classes used: active, inactive

[[record]]
molecule = "CN(C)C(=O)Nc1cccc(C(F)(F)F)c1"
assigned_category = "inactive"

[[record]]
molecule = "CCOP(=O)(SC(C)CC)N1CCSC1=O (stereo not drawn)"
assigned_category = "inactive"

[[record]]
molecule = "CNc1cnn(-c2cccc(C(F)(F)F)c2)c(=O)c1Cl"
assigned_category = "inactive"

[[record]]
molecule = "Cc1cc(C2CC2)nc(Nc2ccccc2)n1"
assigned_category = "inactive"

[[record]]
molecule = "CC(C)N(C(=O)SCC(Cl)=C(Cl)Cl)C(C)C"
assigned_category = "active"

[[record]]
molecule = "COP(=O)(OC)C(O)C(Cl)(Cl)Cl (stereo not drawn)"
assigned_category = "inactive"

[[record]]
molecule = "CCOC(=O)CC(SP(=O)(OC)OC)C(=O)OCC (stereo not drawn)"
assigned_category = "inactive"

[[record]]
molecule = "CC(C1CC1)C(O)(Cn1cncn1)c1ccc(Cl)cc1 (stereo not drawn)"
assigned_category = "inactive"

[[record]]
molecule = "CCCSP(=O)(OCC)Oc1ccc(Br)cc1Cl (stereo not drawn)"
assigned_category = "inactive"

[[record]]
molecule = "CCOP(=O)(OCC)Oc1cc(C)nc(C(C)C)n1"
assigned_category = "inactive"

[[record]]
molecule = "CCOC(=O)COc1cc(-c2nn(C)c(OC(F)F)c2Cl)c(F)cc1Cl"
assigned_category = "inactive"

[[record]]
molecule = "CNC(=O)ON=C(C)SC"
assigned_category = "inactive"

[[record]]
molecule = "CSc1nc(NC(C)C)nc(NC(C)C)n1"
assigned_category = "inactive"

